# credit: paper PMC12040169

assay: in vitro; settings: human, hela cells, % viability
In this section, each of the molecules is paired with its reported viability at 28.5 h, 10 µM.
I only need the number, in %, no unit after it.

{"columns": ["Molecule", "viability at 28.5 h, 10 µM (%)"],
 "data": [
  ["CN1CCC[C@H]1C(=O)N1CCN(c2ncccn2)CC1", 93.4]
]}

Next molecule, please.
Query :: Tell me viability at 28.5 h, 10 µM reported for O=C(O)CCN1CCCC2(CCN(C(=O)c3ccoc3)C2)C1 (centres unmarked)
Result :: 93.4

* * *

assay: in vitro; parameters: Viability of infected HeLa host cells, resazurin conversion, bulk resorufin fluorescence relative to DMSO; details: human, hela cells; bulk resorufin, mean of 3
Reported Property: viability at 28.5 h, 0.00125 µM (%)
Reply numerically in %, unit not repeated.

Recorded viability at 28.5 h, 0.00125 µM, per entry:
{"columns": ["Compound", "Unit Abbrev", "Test Result"],
 "data": [
  ["Cc1cccc(-c2ccc(CC3(C(N)=O)CCN(C(=O)CCc4ccccc4)CC3)cc2)c1 [c38e]", "%", 97.3],
  ["CC(=O)Nc1ccc(-c2cccc(COC3CCN(C(=O)c4ccc(OC(C)C)cc4)CC3)c2)cc1 [c36e]", "%", 85.4],
  ["Cc1cccc(OCC(C)NC(=O)NCCc2cnn(C)c2)c1 (stereo not shown) [c47e]", "%", 99.7],
  ["COc1ccc(C2CC(=O)C=C(Nc3cc(Cl)ccc3O)C2)cc1 (stereo not shown) [c24e]", "%", 92.4],
  ["C1=C(CCNCCc2ccccc2)c2ccccc2C12CCCC2 [c51e]", "%", 96.2]
]}

Query :: Indicate the recorded viability at 28.5 h, 0.00125 µM value for this compound: CC1=C(C)C(=NNC(N)=S)C(C)=C(C)C1=NNC(N)=S [c19e]
Result :: 103

Query :: Answer with the recorded viability at 28.5 h, 0.00125 µM for the compound listed here: Fc1cccc(F)c1OCCOc1nc(N2CCNCC2)ccc1C(F)(F)F [c21e]
Result :: 87.7

Query :: Consider the compound CCC1C(c2ccc(C)cc2)=CCC(C(=O)NCCCN(C)C)C1C (stereo not shown) [c30e] . State its measured viability at 28.5 h, 0.00125 µM.
Result :: 95.1

Query :: Return value of viability at 28.5 h, 0.00125 µM for input O=C(N/N=C\c1ccc([N+](=O)[O-])o1)c1nc(-c2ccccc2)cc(-c2ccccc2)n1 [c3e] , no commentary.
Result :: 92.4

Query :: Give the measured viability at 28.5 h, 0.00125 µM for c1c(C2CC2)[nH]c2nc(N3CCCC3)nc(N3CCCC3)c12 [c7e]
Result :: 85.2

* * *

assay: in vitro; settings: human, hela cells, % viability
Recorded viability at 28.5 h, 10 µM for the following compounds
The reply should contain only the number, in %.

Example results:
{"columns": ["Compound", "viability at 28.5 h, 10 µM [%]"],
 "data": [
  ["CCn1c(=N)n(CC(=O)O)c2ccccc21 [CBK262906B]", 94],
  ["CSCCN1CCC(Oc2nccnc2OC2CCCCC2)CC1 [CBK082873T]", 97],
  ["CCc1cccc(C)c1N(C(=O)Cn1c(=O)[nH]c2ccccc21)C(C)COC (stereo not shown) [CBK287950]", 80.1],
  ["COc1ccc(CNC(=O)Cn2nnc(-c3ccc(NC(=O)C4CCCCC4)cc3)n2)cc1 [CBK135876]", 101],
  ["N#CCCCN1CCC(Oc2nccnc2OCc2c(F)cccc2Cl)CC1 [CBK153630]", 102]
]}

Query :: Provide measured viability at 28.5 h, 10 µM value, entry: CCCC1(C)NC(=O)N(Cc2coc(-c3cccs3)n2)C1=O (stereo not shown) [CBK305594]
Result :: 100

Query :: # return recorded viability at 28.5 h, 10 µM for input COc1ccc(S(=O)(=O)Nc2ccc(S(=O)(=O)Nc3nccs3)cc2)cc1C [CBK266011]
Result :: 101

Query :: Name the recorded viability at 28.5 h, 10 µM of the item O=C(O)c1csc(S(=O)(=O)Nc2ccccc2C(=O)Nc2ccc3c(c2)OCO3)c1 [CBK295655] in your answer.
Result :: 102

Query :: Answer with the recorded viability at 28.5 h, 10 µM for the compound listed here: Cc1cccc(CN2CCC[C@@H]3CN(C(=O)CC(C)C)C[C@@H]32)n1 [CBK285291]
Result :: 108

Query :: Please report the measured viability at 28.5 h, 10 µM for Cc1ncccc1-c1cc2cccnc2n1CCC(=O)NC1CC1 [CBK282690]
Result :: 106

Query :: Quick one: give measured viability at 28.5 h, 10 µM for Cc1nc[nH]c1CN1CCCN(S(=O)(=O)c2ccc(C(F)(F)F)cc2Cl)CC1 [CBK063035]
Result :: 112

Query :: For the compound NS(=O)(=O)c1ccc(C(=O)N2CCC3(CCN(C(=O)Cc4c[nH]c5ccccc45)C3)C2)cc1 (stereo not shown) [CBK131425] , give its measured viability at 28.5 h, 10 µM value.
Result :: 100

Query :: Retrieve viability at 28.5 h, 10 µM measured for CCc1c(C)cc(C(=O)N(C)C(CC)c2ccccn2)c(=O)n1C (stereo not shown) [CBK307078] and print it.
Result :: 95.6

Query :: Identify viability at 28.5 h, 10 µM associated with the compound CC1CCc2c(sc(NC(=O)c3cccs3)c2C(=O)N(C)C)C1 (stereo not shown) [CBK307100]
Result :: 90.9

Query :: Specify reported viability at 28.5 h, 10 µM for the compound shown: CCOC(=O)c1cnn2c(C)cc(C)nc12 [CBK101119]
Result :: 103

* * *

viability at 28.5 h, 10 µM for assorted compounds
assay: in vitro; conditions: human, hela cells, % viability
// return numeric value only (unit: %, not printed)

As a guide, the following entries are already answered.
{"columns": ["Compound", "viability at 28.5 h, 10 µM, %"],
 "data": [
  ["Nc1ncc(-c2cccc3ncccc23)nc1N1CCC[C@@H]1CO", 105],
  ["O=C(NCc1ccc2c(c1)OCO2)c1ccccc1CCc1ccccc1", 107],
  ["COC(=O)CNC(=O)C1CC(=O)N(c2ccccc2Br)C1 (stereo not shown)", 97.1]
]}

Query :: # return recorded viability at 28.5 h, 10 µM for entry `COc1cccc(CCC(=O)n2ccn(-c3ccc(N(C)C)cc3)c2=O)c1`
Result :: 99

* * *

assay: in vitro; settings: human, hela cells, % viability
Reported viability at 28.5 h, 10 µM values for the following compounds.
Response body: numeric value in %, unit text excluded.

// solved cases for viability at 28.5 h, 10 µM follow
{"columns": ["Compound", "viability at 28.5 h, 10 µM / %"],
 "data": [
  ["COc1ccc(-c2nnc3ccc(SC(C)C)nn23)cc1OC [CBK287526]", 101],
  ["CN(C(=O)c1ccco1)c1nc2c(s1)CCc1c-2cnn1C [CBK281928]", 81.2],
  ["Cc1nc(C)c(-c2csc(Nc3ccc(C(=O)O)c(O)c3)n2)s1 [CBK267263]", 101],
  ["CNCc1cc(Br)ccc1OC [CBK027857]", 113],
  ["FC(F)(F)Oc1ccc(-c2cc(NCCc3ccccn3)ncn2)cc1 [CBK037732]", 98.2]
]}

Query :: Give the reported value of viability at 28.5 h, 10 µM for this record: CCN(CC(C)C#N)C(=O)c1cc2ccccc2oc1=O (stereo not drawn) [CBK305992]
Result :: 87.8

Query :: Supply viability at 28.5 h, 10 µM value. Item: c1cncc(CNc2nccnc2-c2ccoc2)c1 [CBK037635]
Result :: 96.4

* * *

assay: in vitro; settings: human, hela cells, % viability
Reported Property: viability at 28.5 h, 10 µM (%)
Express the result in % but write the number alone.

Use these answered entries as a reference point.
{"columns": ["Compound", "Unit Abbrev", "viability at 28.5 h, 10 µM"],
 "data": [
  ["Cc1cccc(CN2CCC(NC(=O)C3(C#N)CCCC3)CC2)c1 [CBK305781]", "%", 91.8],
  ["CCN(CC)C(=O)CN1C(=O)C2(Nc3ccccc3C(=O)N2c2ccc(F)cc2)c2ccccc21 (centres unmarked) [CBK103751]", "%", 83.3],
  ["COc1ccc([C@H]2CN(Cc3ccccc3)C[C@@H]2NC(C)=O)cc1 [CBK282930]", "%", 92.1],
  ["O=C(COc1ccc2ccccc2c1)Nc1cc([N+](=O)[O-])ccc1F [CBK263780]", "%", 92.8],
  ["Cc1onc(-c2ccccc2Cl)c1C(=O)Nc1ccc(S(=O)(=O)N2CCC(C)CC2)cc1 [CBK265463]", "%", 107],
  ["O=C(Nc1ccccc1OC1CCNCC1)C1CCC1 [CBK045901T]", "%", 109],
  ["O=C(NCC1CCCCC1)N1CCN(c2ccc(F)cc2)CC1 [CBK156397]", "%", 86.9],
  ["CCn1cc(CN2C3CCC2CC(O)(c2cccc(F)c2)C3)c(C)n1 (centres unmarked) [CBK282755]", "%", 80.9],
  ["O=S(=O)(Nc1cccc(-c2nnn[nH]2)c1)c1sc(Cl)cc1Br [CBK155035]", "%", 94.6],
  ["Cc1ccc2[nH]c(/C(C#N)=C\\c3cc(C)n(-c4ccc(S(N)(=O)=O)cc4)c3C)nc2c1 [CBK267611]", "%", 105]
]}

Query :: Tell me viability at 28.5 h, 10 µM reported for Cc1cc(NC(=O)CSc2nc(-c3ccc(F)cc3)cc(C(F)(F)F)n2)n(-c2ccccc2)n1 [CBK266248]
Result :: 102

Query :: Give the reported value of viability at 28.5 h, 10 µM for this record: C1CN=C(SCCCSC2=NCCCN2)NC1 [CBK278210B]
Result :: 110

Query :: Respond only with viability at 28.5 h, 10 µM recorded for CC(=O)NCCSc1cccc(C(F)(F)F)n1 [CBK105299]
Result :: 112

Query :: Identify the reported viability at 28.5 h, 10 µM for the following entry. Clc1ccc(-n2c(COc3cccc4cccnc34)nnc2SCc2ccccc2)cc1 [CBK268502]
Result :: 103

Query :: Answer with the recorded viability at 28.5 h, 10 µM of O=C1CC(NCc2ccc3c(c2)OCO3)C(=O)N1c1ccc(OC(F)(F)Cl)cc1 (centres unmarked) [CBK074357] only.
Result :: 87.7

Query :: Hello, please tell me recorded viability at 28.5 h, 10 µM for this one: COCc1cc(=O)oc2cc(NS(C)(=O)=O)ccc12 [CBK008516]
Result :: 119

Query :: Return the recorded viability at 28.5 h, 10 µM value; entry: Cc1noc(C)c1NC(=O)c1ccccn1 [CBK200299]
Result :: 95.6

Query :: Please report viability at 28.5 h, 10 µM for the following compound: CC(=O)c1sc(NC(=O)c2ccc(Br)o2)nc1C [CBK057948]
Result :: 91.6

Query :: Tell us which viability at 28.5 h, 10 µM value is on record for Fc1cc(Br)ccc1-c1cn(-c2ccc3[nH]ccc3c2)nn1 [CBK113146]
Result :: 91.2

Query :: Specify reported viability at 28.5 h, 10 µM for the compound shown: Cc1[nH]c2ccccc2c1CCNC(=O)N(Cc1cnn(C)c1)C1CC1 [CBK306661]
Result :: 89
